# EXPERIMENTAL_SYSTEM: UniProt:P08183
# PROTOCOL_NOTES: Rhodamine 123 retention by flow cytometry
# Assay type: cell-based
# CONDITION_DESCRIPTION: concentration 2 μM, rhodamine 123, COLO 320 vs COLO 205
The following molecules are shown together with reported FAR (fluorescence activity ratio) values.
A bare number is all that is needed in reply.

Answered cases to consult:
- CC(C)=CCOc1c2occc2cc2ccc(=O)oc12: 1.47
- COc1cc2ccc(=O)oc2cc1OC: 1.04
- CC(C)=CCC/C(C)=C/COc1ccc2ccc(=O)oc2c1: 1.76

Qu. Record lookup: for UniProt:P08183, what FAR (fluorescence activity ratio) belongs to `COc1c2ccoc2c(OCC=C(C)C)c2oc(=O)ccc12` ?
Ans. 1.44

Qu. `CC1(C)O[C@H]2CC(=O)OC[C@]23[C@H]2CC[C@@]4(C)[C@H](c5ccoc5)OC(=O)[C@H]5O[C@]54[C@]2(C)C(=O)C[C@@H]13` , same question.
Ans. 0.38

---

The following compounds are shown together with reported FL-1 (mean fluorescence intensity of the cells) values.
# EXPERIMENTAL_SYSTEM: P-glycoprotein (Homo sapiens, UniProt P08183)
# Sequence (P08183 whole entry): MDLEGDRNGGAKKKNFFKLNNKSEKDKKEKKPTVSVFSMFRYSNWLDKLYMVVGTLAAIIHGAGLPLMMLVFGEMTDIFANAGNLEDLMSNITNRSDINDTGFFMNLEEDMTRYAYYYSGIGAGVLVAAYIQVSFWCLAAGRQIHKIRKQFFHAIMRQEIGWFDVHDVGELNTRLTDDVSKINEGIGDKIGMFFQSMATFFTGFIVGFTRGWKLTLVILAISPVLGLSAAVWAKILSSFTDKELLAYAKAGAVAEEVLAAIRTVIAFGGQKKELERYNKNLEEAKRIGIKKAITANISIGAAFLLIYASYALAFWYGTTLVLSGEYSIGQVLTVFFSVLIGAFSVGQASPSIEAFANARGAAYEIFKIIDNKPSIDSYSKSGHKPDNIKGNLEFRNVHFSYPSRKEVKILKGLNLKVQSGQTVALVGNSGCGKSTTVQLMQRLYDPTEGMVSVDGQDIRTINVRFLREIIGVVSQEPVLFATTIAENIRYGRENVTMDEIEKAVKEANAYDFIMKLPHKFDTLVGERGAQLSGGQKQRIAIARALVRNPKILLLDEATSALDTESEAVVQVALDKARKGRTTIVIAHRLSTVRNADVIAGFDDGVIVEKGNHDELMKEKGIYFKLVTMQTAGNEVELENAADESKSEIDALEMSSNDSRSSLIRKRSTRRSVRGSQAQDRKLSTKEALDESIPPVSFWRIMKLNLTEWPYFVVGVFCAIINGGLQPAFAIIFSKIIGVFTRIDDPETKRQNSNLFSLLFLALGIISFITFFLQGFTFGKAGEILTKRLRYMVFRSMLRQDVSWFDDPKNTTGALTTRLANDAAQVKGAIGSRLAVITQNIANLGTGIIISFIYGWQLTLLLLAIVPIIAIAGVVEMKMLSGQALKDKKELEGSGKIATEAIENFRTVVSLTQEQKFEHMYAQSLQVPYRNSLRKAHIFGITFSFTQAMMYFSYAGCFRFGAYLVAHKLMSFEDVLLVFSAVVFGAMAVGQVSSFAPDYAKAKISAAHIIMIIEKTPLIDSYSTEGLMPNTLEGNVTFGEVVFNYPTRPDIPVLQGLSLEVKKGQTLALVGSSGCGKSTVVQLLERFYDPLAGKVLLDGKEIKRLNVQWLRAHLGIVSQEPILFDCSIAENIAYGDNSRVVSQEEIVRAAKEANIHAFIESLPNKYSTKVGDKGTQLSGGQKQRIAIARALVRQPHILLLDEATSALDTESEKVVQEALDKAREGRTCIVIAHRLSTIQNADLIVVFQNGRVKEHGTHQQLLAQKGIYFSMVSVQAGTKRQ
# PROTOCOL_NOTES: Rhodamine 123 retention by flow cytometry
# Assay type: cell-based
# CONDITION_DESCRIPTION: concentration 20 μM, rhodamine 123
A bare number is all that is needed in reply.

Answered cases to consult:
* COc1c2ccoc2c(OCC=C(C)C)c2oc(=O)ccc12 | 20.30
* CC(C)=CCC/C(C)=C/COc1ccc2ccc(=O)oc2c1 | 30.80
* CC1(C)O[C@H]2CC(=O)OC[C@]23[C@H]2CC[C@@]4(C)[C@H](c5ccoc5)OC(=O)[C@H]5O[C@]54[C@]2(C)C(=O)C[C@@H]13 | 10.00
* CC(C)=CCOc1c2occc2cc2ccc(=O)oc12 | 9.82

Qu. Any idea what FL-1 (mean fluorescence intensity of the cells) was measured for `COc1cc2ccc(=O)oc2cc1OC` ?
Ans. 15.60

---

# EXPERIMENTAL_SYSTEM: P-glycoprotein (Homo sapiens)
# PROTOCOL_NOTES: Rhodamine 123 retention by flow cytometry
# Type: cell-based
# CONDITION_DESCRIPTION: concentration 20 μM, rhodamine 123, COLO 320 vs COLO 205
The following molecules are shown together with reported FAR (fluorescence activity ratio) values.
A bare number is all that is needed in reply.

* CC(C)=CCC/C(C)=C/COc1ccc2ccc(=O)oc2c1 | 4.00
* COc1c2ccoc2c(OCC=C(C)C)c2oc(=O)ccc12 | 2.63
* CC1(C)O[C@H]2CC(=O)OC[C@]23[C@H]2CC[C@@]4(C)[C@H](c5ccoc5)OC(=O)[C@H]5O[C@]54[C@]2(C)C(=O)C[C@@H]13 | 1.30
* COc1cc2ccc(=O)oc2cc1OC | 2.02

Please turn your attention to the following entry.
Qu. Any idea what FAR (fluorescence activity ratio) was measured for `CC(C)=CCOc1c2occc2cc2ccc(=O)oc12` ?
Ans. 1.27

---

# EXPERIMENTAL_SYSTEM: P-glycoprotein (Homo sapiens)
# PROTOCOL_NOTES: Rhodamine 123 retention by flow cytometry
# Format: cell-based
# CONDITION_DESCRIPTION: concentration 2 μM, rhodamine 123
ASSAY_METRIC: FL-1 (mean fluorescence intensity of the cells)
A bare number is all that is needed in reply.

Answered cases to consult:
* CC(C)=CCOc1c2occc2cc2ccc(=O)oc12 [Compound 1, imperatorin] | 11.30
* CC1(C)O[C@H]2CC(=O)OC[C@]23[C@H]2CC[C@@]4(C)[C@H](c5ccoc5)OC(=O)[C@H]5O[C@]54[C@]2(C)C(=O)C[C@@H]13 [Compound 9, limonin] | 2.92
* COc1c2ccoc2c(OCC=C(C)C)c2oc(=O)ccc12 [Compound 2, phellopterin] | 11.10

Qu. Any idea what FL-1 (mean fluorescence intensity of the cells) was measured for CC(C)=CCC/C(C)=C/COc1ccc2ccc(=O)oc2c1 [Compound 5, auraptene] ?
Ans. 13.60

Qu. COc1cc2ccc(=O)oc2cc1OC [Compound 3, 6,7-dimethoxycoumarin] , same question.
Ans. 8.01

Source: paper PMC9463373
